Measured values drawn from patent US20050197331A1 for this set.

Parameter: melting point. Scope: all listed entries.
Where a name gives a salt, the structure may show the parent alone.

Please report the recorded melting point for CC(=N)Nc1ccc2oc(-c3cccc(C(F)(F)F)c3)nc2c1 .
157.9 to 159.2 °C

Please report the recorded melting point for Br.CC(=N)Nc1ccc2nc(-c3ccc[nH]3)[nH]c2c1 .
197 to 199 °C

Please report the recorded melting point for CC(=N)Nc1ccc2nc(-c3ccccc3)sc2c1 .
161 to 162.1 °C

Please report the recorded melting point for CC(=N)Nc1ccc2[nH]c(-c3cccc(C(F)(F)F)c3)nc2c1 (as salt: hydrobromid) [Compound 36, hydrobromide] .
284.3 to 285.4 °C

Please report the recorded melting point for CCCCCc1nc2ccc(NC(C)=N)cc2[nH]1 (as salt: hydrochloride) [Compound 22, dihydrochloride] .
276.9 to 278.3 °C

More entries:
Please report the recorded melting point for CC(=N)Nc1ccc2sc(Cc3ccccc3)nc2c1 [Compound 11, N-[2-benzylbenzothiazol-5-yl]acetamidine] .
117.9 to 120 °C

Please report the recorded melting point for CC(=N)Nc1ccc2oc(-c3ccccc3)nc2c1 .
171.2 to 173.4 °C
